- Measurement Target: T1, Spy L32P (E. coli, UniProt P77754 24-161, L32P)
- T1 construct: N-terminal serine from the Sumo fusion construct; the footnote says it of Spy purification in general; Spy, E. coli, mature protein; numbers count on: the mature protein; Variant of m1 found by genetic selection, remade by site-directed mutagenesis; also called super-Spy variant; source: purified; not shown: SUMO, N-terminal, cleaved (from the N-terminal serine said of Spy purification in general)
- T1 sequence: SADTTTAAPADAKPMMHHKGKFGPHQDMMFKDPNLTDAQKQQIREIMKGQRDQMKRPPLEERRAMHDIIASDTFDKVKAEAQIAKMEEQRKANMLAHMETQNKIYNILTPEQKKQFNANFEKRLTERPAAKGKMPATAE
- Test: BLI; biotinylated Im7 L53A I54A immobilised on streptavidin sensors (Octet RED); Spy variants at 2, 1, 0.5, 0.25 and 0.125 µM; 25°C; 40 mM HEPES, 150 mM NaCl, pH 7.5; 1:1 binding model, KD = koff/kon; apparent
- Measurement Context: both partners purified
Observable: Kd (nM)
Numeric answer only, unit nM assumed.

[Q] Find the recorded Kd belonging to Biotinylated Im7 L53A I54A (natural protein, biotin (EZ-link NHS-biotin at 1:1 molar ratio; site not stated), N-terminal serine from the Sumo fusion construct; the footnote says it of Im7 purification in general; immunity protein 7 (Im7), colicin E7 immunity protein; Same protein as m10 with biotin; held on streptavidin sensors; also called biotin-conjugated Im7 L53A I54A; immunity protein 7 L53A I54A; source: purified from a Sumo fusion construct (Quan et al., 2011), biotinylated with EZ-link …) SMELKNSISDYTEAEFVQLLKEIEKENVAATDDVLDVLLEHFVKITEHPDGTDAAYYPSDNRDDSPEGIVKEIKEWRAANGKPGFKQG and report it.
[A] 200
